TARGET OF ASSAY: μ-opioid receptor (Homo sapiens (Human))
PROCEDURE DETAILS: μ-opioid receptor [35S]GTPγS functional assay (HEK-293 cells)
Type: biochemical
STATED CONDITIONS: HEK-293 cells; bound given in μM; read-out: Opioid Receptor μ EC50
Protocol: [^35S]GTPγS functional assays were conducted using freshly thawed μ-receptor membranes prepared in-house from a cell line expressing recombinant μ opioid receptor in a HEK-293, CHO or U-2 OS cell background, or purchased from a commercial source (Perkin Elmer, Shelton, Conn.; or DiscovRx, Fremont, Calif.). […] BetaScint scintillation cocktail (Perkin Elmer, Shelton, Conn.) was added (50 μl/well) and plates were counted using a Packard Top-Count for 1 min/well. […]
MEASURE: EC50

INSERT INTO results (record_smiles, target_of_assay, result) VALUES
  ('COc1ccc2c(c1)[C@]13CCN(CC4CC4)[C@H](C2)[C@]12CC[C@@](N(Cc1ccccc1)Cc1ccccc1)(CO2)C3', 'μ-opioid receptor (Homo sapiens (Human))', '> 20 µM');

Entry source: patent US9862726B2
